Target under test: Equilibrative nucleoside transporter 1 (Homo sapiens, UniProt Q99808)
Sequence (Q99808 whole entry): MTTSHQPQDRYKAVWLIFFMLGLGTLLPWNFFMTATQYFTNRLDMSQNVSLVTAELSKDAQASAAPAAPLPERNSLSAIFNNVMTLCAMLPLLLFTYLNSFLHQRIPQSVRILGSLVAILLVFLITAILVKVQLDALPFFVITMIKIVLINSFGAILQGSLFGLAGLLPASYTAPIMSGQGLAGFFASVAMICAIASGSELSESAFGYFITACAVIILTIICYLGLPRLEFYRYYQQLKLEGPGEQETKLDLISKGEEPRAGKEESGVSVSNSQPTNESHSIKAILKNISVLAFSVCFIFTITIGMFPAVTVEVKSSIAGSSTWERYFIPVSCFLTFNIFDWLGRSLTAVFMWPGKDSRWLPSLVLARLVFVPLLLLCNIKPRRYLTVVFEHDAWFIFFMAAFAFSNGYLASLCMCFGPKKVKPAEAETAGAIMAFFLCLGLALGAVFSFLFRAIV
Assay name: Inhibition of the equilibrative nucleoside transporter (ENT1, SLC29A1) as assessed by GPCR-mediated changes in cell morphology using the impedance-based transporter activity through receptor activation (TRACT) assay (PubChem AID: 1745861)
Measured quantity: IC50 (nM)
Give a bare numeral; the unit nM is implied.

Challenge: Give a short answer stating reported IC50 for NC(=O)C1CN(CCCCC(c2ccc(F)cc2)c2ccc(F)cc2)CCN1CC(=O)Nc1c(Cl)cc(N)cc1Cl (stereo unspecified) [DRAFLAZINE] .
Response given: 5.3
